Measured pIC50, listed per entry for reference.
Target: Casein kinase II subunit alpha' (Homo sapiens)
Sequence (P19784 whole entry): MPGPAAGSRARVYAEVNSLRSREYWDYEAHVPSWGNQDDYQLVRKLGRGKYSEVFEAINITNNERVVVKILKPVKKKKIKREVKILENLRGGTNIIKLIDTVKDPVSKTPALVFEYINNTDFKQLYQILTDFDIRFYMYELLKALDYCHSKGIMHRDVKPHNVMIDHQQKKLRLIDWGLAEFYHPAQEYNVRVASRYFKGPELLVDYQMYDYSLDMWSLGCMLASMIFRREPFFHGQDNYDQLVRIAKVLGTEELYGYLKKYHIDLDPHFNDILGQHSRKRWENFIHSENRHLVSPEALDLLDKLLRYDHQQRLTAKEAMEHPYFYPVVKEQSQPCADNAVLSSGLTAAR
Test: Inhibition of GST-tagged full-length purified human CK2a2 using RRRDDDSDDD substrate incubated for 120 mins in presence of [33P]ATP by scintillation counting based biochemical assay
pIC50: −log10 of the molar value.

Here's what some known entries look like.
CCCNC(=O)c1cnn2c(=O)cc(-c3ccc4[nH]nnc4c3)[nH]c12
≥ 5.00
CCc1nn2c(=O)cc(-c3ccc4[nH]nnc4c3)[nH]c2c1-c1ccccn1
≥ 5.00
COc1ccc(-c2cc(=O)n3nc(C)c(Cc4ccc(Cl)cc4)c3[nH]2)cc1OC
≤ 5.00
O=c1cc(-c2ccc3c(c2)OCO3)[nH]c2c(-c3ncccc3F)cnn12
≥ 5.00
CC(=O)Nc1nn2c(=O)cc(-c3ccc4c(cnn4C)c3)[nH]c2c1-c1ccccn1
≥ 5.00

Briefly, pIC50 measured for Cc1nn2c(=O)cc(-c3ccc4c(c3)OCO4)[nH]c2c1Cc1ccc(Cl)cc1 : ≥ 5.00

Briefly, pIC50 measured for O=c1cc(-c2ccc(F)cc2)[nH]c2c(-c3ccccn3)cnn12 : ≥ 5.00

Briefly, pIC50 measured for Cc1nn2c(=O)cc(-c3ccc4c(c3)OCO4)[nH]c2c1Cc1ccccn1 : ≥ 5.00

Briefly, pIC50 measured for O=c1cc(-c2ccc3c(c2)OCO3)[nH]c2c(-c3ccccn3)cnn12 : ≥ 5.00

Briefly, pIC50 measured for N#Cc1ccc(-c2cc(=O)n3ncc(-c4ccccn4)c3[nH]2)cc1 : ≤ 5.00

---

Measured IC50, listed per entry for reference.
Biological target: PAS domain-containing serine/threonine-protein kinase (Homo sapiens)
Sequence (Q96RG2 whole entry, the tested form may be a part): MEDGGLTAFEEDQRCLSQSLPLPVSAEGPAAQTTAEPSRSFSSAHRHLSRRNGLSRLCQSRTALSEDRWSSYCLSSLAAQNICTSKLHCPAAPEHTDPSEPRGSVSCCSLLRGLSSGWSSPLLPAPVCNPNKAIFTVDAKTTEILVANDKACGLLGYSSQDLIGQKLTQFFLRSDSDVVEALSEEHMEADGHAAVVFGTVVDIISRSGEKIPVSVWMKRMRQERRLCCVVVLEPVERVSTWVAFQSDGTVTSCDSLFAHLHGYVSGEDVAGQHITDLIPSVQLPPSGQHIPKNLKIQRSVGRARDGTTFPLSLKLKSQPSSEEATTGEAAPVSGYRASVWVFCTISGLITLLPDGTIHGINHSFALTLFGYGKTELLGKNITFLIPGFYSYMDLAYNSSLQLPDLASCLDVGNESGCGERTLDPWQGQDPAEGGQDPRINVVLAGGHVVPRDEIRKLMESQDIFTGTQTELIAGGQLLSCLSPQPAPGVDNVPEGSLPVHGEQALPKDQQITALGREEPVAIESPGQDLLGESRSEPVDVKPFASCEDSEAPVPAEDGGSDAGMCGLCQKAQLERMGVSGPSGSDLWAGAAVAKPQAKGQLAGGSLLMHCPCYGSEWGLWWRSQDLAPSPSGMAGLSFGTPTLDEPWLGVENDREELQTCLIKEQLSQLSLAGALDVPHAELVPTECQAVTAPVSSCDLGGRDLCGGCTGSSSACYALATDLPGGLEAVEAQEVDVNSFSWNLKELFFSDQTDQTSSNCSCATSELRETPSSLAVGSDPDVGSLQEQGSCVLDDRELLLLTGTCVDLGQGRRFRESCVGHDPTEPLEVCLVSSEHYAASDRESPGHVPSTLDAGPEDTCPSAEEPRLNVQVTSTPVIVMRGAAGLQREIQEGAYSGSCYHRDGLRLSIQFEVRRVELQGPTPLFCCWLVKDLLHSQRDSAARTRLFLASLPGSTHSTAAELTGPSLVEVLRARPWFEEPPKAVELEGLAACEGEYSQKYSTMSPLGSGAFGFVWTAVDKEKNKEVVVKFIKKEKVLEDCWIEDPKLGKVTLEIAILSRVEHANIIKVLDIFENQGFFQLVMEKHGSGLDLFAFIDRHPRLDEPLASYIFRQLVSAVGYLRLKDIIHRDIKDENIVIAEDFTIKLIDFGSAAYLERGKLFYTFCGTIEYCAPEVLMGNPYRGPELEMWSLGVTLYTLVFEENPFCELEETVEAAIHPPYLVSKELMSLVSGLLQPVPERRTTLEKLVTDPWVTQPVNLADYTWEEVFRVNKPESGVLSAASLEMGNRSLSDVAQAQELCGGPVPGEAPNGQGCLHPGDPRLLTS
Experiment: Inhibition of purified human PASK kinase domain expressed in insect cells using MBP protein substrate incubated for 10 mins before ATP addition and measured after 1 hr by kinase-Glo luminescent kinase assay

Here's what some known entries look like.
COCc1cc(=O)n2nc(Cc3ccccc3)c(-c3ccc(OC)cc3)c2[nH]1
≥ 10 µM
COc1ccccc1-c1cc(=O)n2nc(C)c(-c3ccccc3)c2[nH]1
≤ 10 µM
Cc1nn2c(=O)cc(-c3ccc(Cl)cc3)[nH]c2c1-c1ccccc1
≤ 10 µM
Cc1ccc(-c2cc(=O)n3nc(C)c(-c4ccccc4)c3[nH]2)cc1
≥ 10 µM
Cc1[nH]c2c(-c3ccc(Cl)cc3)cnn2c(=O)c1Cc1ccccc1
≤ 10 µM

Briefly, IC50 measured for Cc1nn2c(=O)cc(-c3ccccc3)[nH]c2c1-c1ccc(Cl)cc1 : ≤ 10 µM

Briefly, IC50 measured for Cc1nn2c(=O)c3c([nH]c2c1-c1ccc(Cl)cc1)CCC3 : ≥ 10 µM

Briefly, IC50 measured for CCc1c(C)[nH]c2c(-c3ccc(Cl)cc3)c(C)nn2c1=O : ≥ 10 µM

Briefly, IC50 measured for Cc1cc(=O)n2nc(C)c(-c3ccc(Cl)cc3)c2[nH]1 : ≥ 10 µM

Briefly, IC50 measured for COc1ccc(-c2cc(=O)n3nc(C)c(-c4ccc(F)cc4)c3[nH]2)cc1 : ≤ 10 µM

Briefly, IC50 measured for COCc1cc(=O)n2nc(Cc3ccccc3)c(-c3ccc(Cl)cc3)c2[nH]1 : ≥ 10 µM

Briefly, IC50 measured for O=c1c2c([nH]c3c(-c4ccc(Cl)cc4)c(Cc4ccccc4)nn13)CCC2 : ≥ 10 µM

Briefly, IC50 measured for Cc1nn2c(=O)cc(-c3ccccc3)[nH]c2c1-c1ccc(F)cc1 : ≥ 10 µM

Briefly, IC50 measured for O=c1cc(-c2ccc([N+](=O)[O-])cc2)[nH]c2c(-c3ccc(Cl)cc3)c(Cc3ccccc3)nn12 : ≤ 10 µM

Briefly, IC50 measured for COc1ccc(-c2cc(=O)n3nc(C)c(-c4ccccc4)c3[nH]2)cc1 : ≤ 10 µM

Briefly, IC50 measured for O=c1cc(Cc2ccccc2)[nH]c2c(-c3ccccc3)c(-c3ccccc3)nn12 : ≥ 10 µM

Briefly, IC50 measured for COc1ccc(-c2nn3c(=O)cc(C(C)C)[nH]c3c2-c2ccccc2)cc1 : ≥ 10 µM

Briefly, IC50 measured for COc1ccc(-c2c(C)nn3c(=O)cc(Cc4ccccc4)[nH]c23)cc1 : ≥ 10 µM

Briefly, IC50 measured for CCc1c(C)[nH]c2c(-c3ccccc3)c(Cc3ccc(OC)cc3)nn2c1=O : ≥ 10 µM

Briefly, IC50 measured for O=c1cc(Cc2ccccc2)[nH]c2c(-c3ccccc3)c(Cc3ccccc3)nn12 : ≥ 10 µM

Briefly, IC50 measured for O=c1cc(-c2ccccc2)[nH]c2c(-c3cccc4ccccc34)c(Cc3ccccc3)nn12 : ≥ 10 µM
